# PROCEDURE_DETAILS: Cytotoxicity in HepDE19 cells (CCK-8) and selectivity index
# Assay type: cell-based
# MEASUREMENT_PARAMETERS: human, HepDE19 cells; CCK-8 cell viability; five days after treatment
Hi there, I'd appreciate the recorded CC50 at 5 days for every entry that follows.

Please give the documented CC50 at 5 days of CCOC(=O)C1=C(CN2CCN3C(=O)N(CC4(C(=O)O)CC4)C[C@@H]3C2)NC(c2nccs2)=N[C@H]1c1cccc(F)c1Cl
> 100 µM

Please indicate CC50 at 5 days recorded for CCOC(=O)C1=C(CN2CCN3C(=O)CC[C@@H]3[C@H]2C(=O)O)NC(c2nccs2)=N[C@H]1c1cccc(F)c1Cl (racemic)
> 100 µM

Read off the recorded CC50 at 5 days for CCOC(=O)C1=C(CN2CCN3C(=O)N(C(C)(C)CC(=O)O)C[C@@H]3C2)NC(c2nccs2)=N[C@H]1c1cccc(F)c1Cl
81 µM

Consider the compound CCOC(=O)C1=C(CN2CCN3C(=O)N(C4CCC(C(=O)O)C4)C[C@@H]3C2)NC(c2nccs2)=N[C@H]1c1cccc(F)c1Cl (mixture of isomers) and give its recorded CC50 at 5 days.
> 100 µM

For the compound CCOC(=O)C1=C(CN2CCN3C(=O)N(CC(C)C(=O)O)C[C@@H]3C2)NC(c2nccs2)=N[C@H]1c1cccc(F)c1Cl (some centres unmarked) , give its reported CC50 at 5 days.
> 100 µM

For the compound COC(=O)C1=C(CN2CCN3C(=O)N(C4CC5(CC(C(=O)O)C5)C4)C[C@@H]3C2)NC(c2nccs2)=N[C@H]1c1ccc(F)cc1Cl (some centres unmarked) , give its measured CC50 at 5 days value.
52 µM

# return recorded CC50 at 5 days for entry COC(=O)C1=C(CN2CCN3C(=O)N(C(C)C)C[C@@H]3[C@H]2C(=O)O)NC(c2nccs2)=N[C@H]1c1ccc(F)c(F)c1C (single isomer, unassigned) [Example 85B]
> 100 µM

Kindly indicate its recorded CC50 at 5 days. Item: COC(=O)C1=C(CN2CCN3C(=O)NCC3(C(=O)OC)C2)NC(c2nccs2)=N[C@H]1c1ccc(F)cc1Cl (some centres unmarked)
75 µM

State its CC50 at 5 days for this compound: COC(=O)C1=C(CN2CCN3C(=O)N(CC4(C(=O)O)CC4)C[C@@H]3C2)NC(c2nccs2)=N[C@H]1c1ccc(F)c(F)c1C
100 µM

Name the recorded CC50 at 5 days of the item CCOC(=O)C1=C(CN2CCN3C(=O)N(C(C)C)C[C@@H]3[C@H]2C(=O)O)NC(c2nccs2)=N[C@H]1c1cccc(F)c1Cl (single isomer, unassigned) [Example 84B] in your answer.
> 100 µM

Quick one: give measured CC50 at 5 days for COC(=O)C1=C(CN2CCN3C(=O)N(CC(C)(C)C(=O)O)C[C@@H]3C2)NC(c2nccs2)=N[C@H]1c1cccc(F)c1Cl
> 100 µM

Supply measured CC50 at 5 days of CCOC(=O)C1=C(CN2CCN3C(=O)N(C4CC4)C[C@@H]3[C@H]2C(=O)O)NC(c2nccs2)=N[C@H]1c1cccc(F)c1Cl (single isomer, unassigned) [Example 82B] in your reply.
> 100 µM

Input COC(=O)C1=C(CN2CCN3C(=O)N(C4CC4)C[C@@H]3[C@H]2C(=O)O)NC(c2nccs2)=N[C@H]1c1ccc(F)c(F)c1C (single isomer, unassigned) [Example 83B] , output reported CC50 at 5 days.
> 100 µM

Determine its reported CC50 at 5 days: COC(=O)C1=C(CN2CCN3C(=O)N(C4CCC(C(=O)O)C4)C[C@@H]3C2)NC(c2nccs2)=N[C@H]1c1ccc(F)cc1Cl (mixture of isomers)
> 100 µM

Identify the reported CC50 at 5 days for the following entry. CCOC(=O)C1=C(CN2CCN3C(=O)N(CC(C)(C)C(=O)O)C[C@@H]3C2)NC(c2nccs2)=N[C@H]1c1ccc(F)c(F)c1C
> 100 µM

Tell me its CC50 at 5 days given COC(=O)C1=C(CN2CCN3C(=O)N(CC(C)(C)CC(=O)O)C[C@@H]3C2)NC(c2nccs2)=N[C@H]1c1ccc(F)cc1Cl as the entry.
> 100 µM

Provide CC50 at 5 days value for the following compound: CCOC(=O)C1=C(CN2CCN3C(=O)N(CCO)CC3C2)NC(c2nccs2)=N[C@H]1c1cccc(F)c1Cl (some centres unmarked)
63 µM

Note down CC50 at 5 days recorded for CCOC(=O)C1=C(CN2CCN3C(=O)N(C(C)C)C[C@@H]3C2)NC(c2nccs2)=N[C@H]1c1cccc(F)c1Cl (single isomer, unassigned) [Example 104B]
27 µM

Assign CC50 at 5 days to the following record: COC(=O)C1=C(CN2CCN3C(=O)N(CCC(C)(C)C(=O)O)C[C@@H]3C2)NC(c2nccs2)=N[C@H]1c1ccc(F)cc1Cl
> 100 µM

For the compound CCOC(=O)C1=C(CN2CCN3C(=O)N(CC4CC(C(=O)O)C4)C[C@@H]3C2)NC(c2nccs2)=N[C@H]1c1cccc(F)c1Cl (some centres unmarked) , report CC50 at 5 days.
85 µM

Identify measured CC50 at 5 days associated with CCOC(=O)C1=C(CN2CCN3C(=O)N(CC4(C(=O)O)CCC4)C[C@@H]3C2)NC(c2nccs2)=N[C@H]1c1cccc(F)c1Cl
68 µM

Output CC50 at 5 days of COC(=O)C1=C(CN2CCN3C(=O)N(C(C)(C)C)C[C@@H]3[C@H]2C(=O)O)NC(c2nccs2)=N[C@H]1c1ccc(F)cc1Cl (single isomer, unassigned) [Example 86B]
> 100 µM

Return CC50 at 5 days (reported value) for this compound: COC(=O)C1=C(CN2CCN3C(=O)N(CC(C)(C)C(=O)O)C[C@@H]3C2)NC(c2nccs2)=N[C@H]1c1cccc(F)c1C
> 100 µM

* * *

# PROCEDURE_DETAILS: Lysa solubility
# Assay type: physicochemical
# MEASUREMENT_PARAMETERS: 0.05 M phosphate buffer (pH 6.5)
PARAMETER_MEASURED: Lysa (µg/mL)
Write the number in µg/mL without appending the unit.

Look up and state reported Lysa for CCOC(=O)C1=C(CN2CCN3C(=O)N(C(C)C)C[C@@H]3[C@H]2C(=O)O)NC(c2nccs2)=N[C@H]1c1cccc(F)c1Cl (single isomer, unassigned) [Example 84B]
770

# return recorded Lysa for input COC(=O)C1=C(CN2CCN3C(=O)N(C(C)C)C[C@@H]3[C@H]2C(=O)O)NC(c2nccs2)=N[C@H]1c1ccc(F)c(F)c1C (single isomer, unassigned) [Example 85B]
770

Provide Lysa value for the following compound: CCOC(=O)C1=C(CN2CCN3C(=O)N(C(C)C)C[C@H]3[C@@H]2C(=O)O)NC(c2nccs2)=N[C@H]1c1cccc(F)c1Cl (single isomer, unassigned) [Example 84A]
570

Consider the compound COC(=O)C1=C(CN2CCN3C(=O)N(C4CC4)C[C@@H]3[C@H]2C(=O)O)NC(c2nccs2)=N[C@H]1c1ccc(F)c(F)c1C (single isomer, unassigned) [Example 83B] and give its recorded Lysa.
780

* * *

Assign solubility thermodynamic to each entry below.
# PROCEDURE_DETAILS: Lysa solubility
# Format: physicochemical
# MEASUREMENT_PARAMETERS: phosphate buffer, pH 6.5, aqueous buffer, thermodynamic from solid, 0.05 M phosphate buffer (pH 6.5)

Recall and state the measured solubility thermodynamic for COC(=O)C1=C(CN2CCN3C(=O)N(c4ccc(C(=O)O)nc4)CC3C2)NC(c2nccs2)=N[C@H]1c1ccc(F)cc1Cl (mixture of isomers) [Example 95] .
307 µg/mL

Return reported solubility thermodynamic. Input molecule: CCOC(=O)C1=C(CN2CCN3C(=O)N(CC(OC)C(=O)O)C[C@@H]3C2)NC(c2nccs2)=N[C@H]1c1cccc(F)c1Cl (stereo partly shown) [Example 78]
> 793 µg/mL

Read off the recorded solubility thermodynamic for COC(=O)C1=C(CN2CCN3C(=O)N(C4(CC(=O)O)CC4)C[C@H]3C2)NC(c2nccs2)=N[C@H]1c1ccc(F)cc1Cl [Example 46]
> 744 µg/mL

Output solubility thermodynamic of COC(=O)C1=C(CN2CCN3C(=O)N(C(C)(C)C)C[C@@H]3[C@H]2C(=O)O)NC(c2nccs2)=N[C@H]1c1ccc(F)c(F)c1C (single isomer, unassigned) [Example 88B]
> 745 µg/mL

Output measured solubility thermodynamic for this item: CCC(CN1C[C@@H]2CN(CC3=C(C(=O)OC)[C@H](c4ccc(F)cc4Cl)N=C(c4nccs4)N3)CCN2C1=O)C(=O)O (stereo partly shown) [Example 75]
> 774 µg/mL

Name the recorded solubility thermodynamic of the item COC(=O)C1=C(CN2CCN3C(=O)N(CC(C)(C)CC(=O)O)C[C@@H]3C2)NC(c2nccs2)=N[C@H]1c1ccc(F)cc1Cl [Example 55] in your answer.
470 µg/mL

Look up and report measured solubility thermodynamic for this entry: CCOC(=O)C1=C(CN2CCN3C(=O)N([C@@H]4CCCC4C(=O)O)C[C@@H]3C2)NC(c2nccs2)=N[C@H]1c1cccc(F)c1Cl (stereo in doubt) [Example 50]
339 µg/mL

# return recorded solubility thermodynamic for entry CCOC(=O)C1=C(CN2CCN3C(=O)N(CCCOCC(=O)O)CC3C2)NC(c2nccs2)=N[C@H]1c1cccc(F)c1Cl (stereo partly shown) [Example 68]
> 794 µg/mL

Read the entry COC(=O)C1=C(CN2CCN3C(=O)N(CC(C)(C)C(=O)O)C[C@@H]3C2)NC(c2nccs2)=N[C@H]1c1cccc(F)c1C [Example 44] and write its reported solubility thermodynamic.
207 µg/mL

Look up and report measured solubility thermodynamic for this entry: COC(=O)C1=C(CN2CCN3C(=O)N(CCC(C)(C)C(=O)O)C[C@@H]3C2)NC(c2nccs2)=N[C@H]1c1ccc(F)cc1Cl [Example 54]
387 µg/mL

Tell me its solubility thermodynamic given COC(=O)C1=C(CN2CCN3C(=O)N(Cc4ccc(C(=O)O)cc4)CC3C2)NC(c2nccs2)=N[C@H]1c1ccc(F)cc1Cl (stereo partly shown) [Example 65] as the entry.
194 µg/mL

Name the recorded solubility thermodynamic of the molecule listed here: COC(=O)C1=C(CN2CCN3C(=O)N(C4CCC(C(=O)O)C4)C[C@@H]3C2)NC(c2nccs2)=N[C@H]1c1ccc(F)cc1Cl (mixture of isomers) [Example 61]
> 742 µg/mL

State its solubility thermodynamic: CCOC(=O)C1=C(CN2CCN3C(=O)N(CCCC(=O)O)C[C@@H]3C2)NC(c2nccs2)=N[C@H]1c1cccc(F)c1Cl [Example 53]
> 723 µg/mL

Please give measured solubility thermodynamic of the following entry: CCOC(=O)C1=C(CN2CCN3C(=O)OC[C@@H]3[C@H]2C(=O)O)NC(c2nccs2)=N[C@H]1c1cccc(F)c1Cl (single isomer, unassigned) [Example 102B]
> 665 µg/mL

State its solubility thermodynamic for this molecule: COC(=O)C1=C(CN2CCN3C(=O)N(C4CCC(C(=O)O)CC4)C[C@@H]3C2)NC(c2nccs2)=N[C@H]1c1ccc(F)cc1Cl (stereo partly shown) [Example 72]
551 µg/mL

// Input: COC(=O)C1=C(CN2CCN3C(=O)N(CC4(C(=O)O)CC4)C[C@@H]3C2)NC(c2nccs2)=N[C@H]1c1ccc(F)cc1Cl [Example 35] . Output its solubility thermodynamic only.
> 754 µg/mL

Given the molecule CCOC(=O)C1=C(CN2CCN3C(=O)N(CC(C)C(=O)O)C[C@@H]3C2)NC(c2nccs2)=N[C@H]1c1ccccc1Cl (stereo partly shown) [Example 20] , write its reported solubility thermodynamic.
> 780 µg/mL

Given the molecule CCOC(=O)C1=C(CN2CCN3C(=O)N(C4CCC(C(=O)O)C4)C[C@@H]3C2)NC(c2nccs2)=N[C@H]1c1cccc(F)c1Cl (mixture of isomers) [Example 62] , write its reported solubility thermodynamic.
374 µg/mL

Dear colleague, please send me the reported solubility thermodynamic for COC(=O)C1=C(CN2CCN3C(=O)N(CC(C)(C)C(=O)O)C[C@@H]3C2)NC(c2nccs2)=N[C@H]1c1cccc(F)c1Cl [Example 41] when you can.
> 804 µg/mL

Query solubility thermodynamic for CCOC(=O)C1=C(CN2CCN3C(=O)N(C(C)(C)CC(=O)O)C[C@@H]3C2)NC(c2nccs2)=N[C@H]1c1cccc(F)c1Cl [Example 34]
326 µg/mL

Return the recorded solubility thermodynamic value; entry: COC(=O)C1=C(CN2CCN3C(=O)N(CC4(C(=O)O)CCC4)C[C@@H]3C2)NC(c2nccs2)=N[C@H]1c1ccc(F)cc1Cl [Example 59]
> 685 µg/mL

Supply recorded solubility thermodynamic for COC(=O)C1=C(CN2CCN3C(=O)N([C@H]4C[C@H](C(=O)O)C4)C[C@@H]3C2)NC(c2nccs2)=N[C@H]1c1ccc(F)cc1Cl [Example 39] here.
> 770 µg/mL

Answer with the recorded solubility thermodynamic for the molecule listed here: CCOC(=O)C1=C(CN2CCN3C(=O)N(CCC(=O)O)C[C@@H]3C2)NC(c2nccs2)=N[C@H]1c1cccc(F)c1Cl [Example 56]
> 740 µg/mL

Return the recorded solubility thermodynamic value; entry: CCOC(=O)C1=C(CN2CCN3C(=O)N(C4(CC(=O)O)CC4)CC3C2)NC(c2nccs2)=N[C@H]1c1cccc(F)c1Cl (stereo in doubt) [Example 48]
> 807 µg/mL

Check the records and state solubility thermodynamic for CCOC(=O)C1=C(CN2CCN3C(=O)N(C(C)(C)C(=O)O)C[C@@H]3C2)NC(c2nccs2)=N[C@H]1c1cccc(F)c1Cl [Example 32]
> 701 µg/mL
